Reference for the values: ChEMBL document CHEMBL3758109

Below, each entry is listed with its recorded inhibition of growth at 10 µM.
Assay: Cytotoxicity against human PC3 cells assessed as cell growth inhibition at 10 uM after 48 hrs by MTT assay
Type: functional
Conditions: PC-3, 48 h, read-out: GI
quantityName: inhibition of growth at 10 µM

structureAsSmiles | valueReported
C=C(C)[C@@H]1CC[C@]2(C(=O)OCc3cn(-c4ccc(-c5ccccc5)cc4)nn3)CC[C@]3(C)[C@H](CC[C@@H]4[C@@]5(C)CC[C@H](O)C(C)(C)[C@@H]5CC[C@]43C)[C@@H]12 | 10%
C=C(C)[C@@H]1CC[C@]2(C(=O)OCc3cn(-c4cccc(OC)c4)nn3)CC[C@]3(C)[C@H](CC[C@@H]4[C@@]5(C)CC[C@H](O)C(C)(C)[C@@H]5CC[C@]43C)[C@@H]12 | 10%
C=C(C)[C@@H]1CC[C@]2(C(=O)OCc3cn(-c4ccc(OC)c(OC)c4)nn3)CC[C@]3(C)[C@H](CC[C@@H]4[C@@]5(C)CC[C@H](O)C(C)(C)[C@@H]5CC[C@]43C)[C@@H]12 | 8%

* * *

Experiment: Cytotoxicity against human PC3 cells assessed as cell growth inhibition at 10 uM after 48 hrs by MTT assay
Type: functional
Conditions: PC-3, 48 h, read-out: GI
Below, each entry is listed with its recorded inhibition of growth at 10 µM.
quantityName: inhibition of growth at 10 µM

structureAsSmiles | valueReported
C=C(C)[C@@H]1CC[C@]2(C(=O)OCc3cn(-c4ccc(F)cc4)nn3)CC[C@]3(C)[C@H](CC[C@@H]4[C@@]5(C)CC[C@H](O)C(C)(C)[C@@H]5CC[C@]43C)[C@@H]12 | 62%
C=C(C)[C@@H]1CC[C@]2(C(=O)OCc3cn(-c4ccccc4)nn3)CC[C@]3(C)[C@H](CC[C@@H]4[C@@]5(C)CC[C@H](O)C(C)(C)[C@@H]5CC[C@]43C)[C@@H]12 | 25%
C=C(C)[C@@H]1CC[C@]2(C(=O)OCc3cn(/C=C/c4ccccc4)nn3)CC[C@]3(C)[C@H](CC[C@@H]4[C@@]5(C)CC[C@H](O)C(C)(C)[C@@H]5CC[C@]43C)[C@@H]12 | 8%
C=C(C)[C@@H]1CC[C@]2(C(=O)O)CC[C@]3(C)[C@H](CC[C@@H]4[C@@]5(C)CC[C@H](O)C(C)(C)[C@@H]5CC[C@]43C)[C@@H]12 | 70%
C=C(C)[C@@H]1CC[C@]2(C(=O)OCc3cn(-c4ccc(C#N)cc4)nn3)CC[C@]3(C)[C@H](CC[C@@H]4[C@@]5(C)CC[C@H](O)C(C)(C)[C@@H]5CC[C@]43C)[C@@H]12 | 46%
C=C(C)[C@@H]1CC[C@]2(C(=O)OCc3cn(-c4ccc5ccccc5c4)nn3)CC[C@]3(C)[C@H](CC[C@@H]4[C@@]5(C)CC[C@H](O)C(C)(C)[C@@H]5CC[C@]43C)[C@@H]12 | 7%
C=C(C)[C@@H]1CC[C@]2(C(=O)OCc3cn(-c4ccc5cc(OC)ccc5c4)nn3)CC[C@]3(C)[C@H](CC[C@@H]4[C@@]5(C)CC[C@H](O)C(C)(C)[C@@H]5CC[C@]43C)[C@@H]12 | 33%
C=C(C)[C@@H]1CC[C@]2(C(=O)OCc3cn(-c4ccc5oc6ccccc6c5c4)nn3)CC[C@]3(C)[C@H](CC[C@@H]4[C@@]5(C)CC[C@H](O)C(C)(C)[C@@H]5CC[C@]43C)[C@@H]12 | 4%
C=C(C)[C@@H]1CC[C@]2(C(=O)OCc3cn(-c4ccc(C)cc4)nn3)CC[C@]3(C)[C@H](CC[C@@H]4[C@@]5(C)CC[C@H](O)C(C)(C)[C@@H]5CC[C@]43C)[C@@H]12 | 67%

* * *

Below, each entry is listed with its recorded inhibition of growth at 10 µM.
Experiment: Cytotoxicity against human PC3 cells assessed as cell growth inhibition at 10 uM after 48 hrs by MTT assay
Type: functional
Conditions: PC-3, 48 h, read-out: GI

structureAsSmiles | inhibition of growth at 10 µM [%]
C=C(C)[C@@H]1CC[C@]2(C(=O)OCc3cn(-c4ccc(C(C)(C)C)cc4)nn3)CC[C@]3(C)[C@H](CC[C@@H]4[C@@]5(C)CC[C@H](O)C(C)(C)[C@@H]5CC[C@]43C)[C@@H]12 | 9
C=C(C)[C@@H]1CC[C@]2(C(=O)OCc3cn(-c4ccc5c(c4)OCO5)nn3)CC[C@]3(C)[C@H](CC[C@@H]4[C@@]5(C)CC[C@H](O)C(C)(C)[C@@H]5CC[C@]43C)[C@@H]12 | 49
C=C(C)[C@@H]1CC[C@]2(C(=O)OCc3cn(-c4ccc(C=O)cc4)nn3)CC[C@]3(C)[C@H](CC[C@@H]4[C@@]5(C)CC[C@H](O)C(C)(C)[C@@H]5CC[C@]43C)[C@@H]12 | 9
C=C(C)[C@@H]1CC[C@]2(C(=O)OCc3cn(-c4cccc5c(O)cccc45)nn3)CC[C@]3(C)[C@H](CC[C@@H]4[C@@]5(C)CC[C@H](O)C(C)(C)[C@@H]5CC[C@]43C)[C@@H]12 | 5

* * *

Below, each entry is listed with its recorded pIC50.
Experiment: Cytotoxicity against human PC3 cells assessed as cell growth inhibition after 48 hrs by MTT assay
Format: functional, cell-based
Conditions: PC-3, 48 h
pIC50: −log10 of the molar value.
quantityName: pIC50

molecule | quantityName | inequalityOperator | valueReported
C=C(C)[C@@H]1CC[C@]2(C(=O)OCc3cn(-c4cc(F)c(F)cc4Br)nn3)CC[C@]3(C)[C@H](CC[C@@H]4[C@@]5(C)CC[C@H](O)C(C)(C)[C@@H]5CC[C@]43C)[C@@H]12 | pIC50 | = | 4.00
C=C(C)[C@@H]1CC[C@]2(C(=O)OCc3cn(-c4ccc(OC)c(OC)c4)nn3)CC[C@]3(C)[C@H](CC[C@@H]4[C@@]5(C)CC[C@H](O)C(C)(C)[C@@H]5CC[C@]43C)[C@@H]12 | pIC50 | = | 4.96
C=C(C)[C@@H]1CC[C@]2(C(=O)OCc3cn(-c4ccc5c(c4)OCO5)nn3)CC[C@]3(C)[C@H](CC[C@@H]4[C@@]5(C)CC[C@H](O)C(C)(C)[C@@H]5CC[C@]43C)[C@@H]12 | pIC50 | = | 5.05
C=C(C)[C@@H]1CC[C@]2(C(=O)OCc3cn(-c4ccc(C#N)cc4)nn3)CC[C@]3(C)[C@H](CC[C@@H]4[C@@]5(C)CC[C@H](O)C(C)(C)[C@@H]5CC[C@]43C)[C@@H]12 | pIC50 | = | 4.92
C=C(C)[C@@H]1CC[C@]2(C(=O)OCc3cn(-c4cccnc4Cl)nn3)CC[C@]3(C)[C@H](CC[C@@H]4[C@@]5(C)CC[C@H](O)C(C)(C)[C@@H]5CC[C@]43C)[C@@H]12 | pIC50 | = | 4.16
C=C(C)[C@@H]1CC[C@]2(C(=O)OCc3cn(-c4cccc(OC)c4)nn3)CC[C@]3(C)[C@H](CC[C@@H]4[C@@]5(C)CC[C@H](O)C(C)(C)[C@@H]5CC[C@]43C)[C@@H]12 | pIC50 | = | 4.60
C=C(C)[C@@H]1CC[C@]2(C(=O)OCc3cn(-c4ccccc4)nn3)CC[C@]3(C)[C@H](CC[C@@H]4[C@@]5(C)CC[C@H](O)C(C)(C)[C@@H]5CC[C@]43C)[C@@H]12 | pIC50 | = | 4.74
C=C(C)[C@@H]1CC[C@]2(C(=O)OCc3cn(-c4ccc5cc(OC)ccc5c4)nn3)CC[C@]3(C)[C@H](CC[C@@H]4[C@@]5(C)CC[C@H](O)C(C)(C)[C@@H]5CC[C@]43C)[C@@H]12 | pIC50 | = | 4.51
C=C(C)[C@@H]1CC[C@]2(C(=O)OCc3cn(-c4ccccc4OC)nn3)CC[C@]3(C)[C@H](CC[C@@H]4[C@@]5(C)CC[C@H](O)C(C)(C)[C@@H]5CC[C@]43C)[C@@H]12 | pIC50 | < | 4.00
C=C(C)[C@@H]1CC[C@]2(C(=O)O)CC[C@]3(C)[C@H](CC[C@@H]4[C@@]5(C)CC[C@H](O)C(C)(C)[C@@H]5CC[C@]43C)[C@@H]12 [BETULINIC ACID] | pIC50 | = | 5.15
C=C(C)[C@@H]1CC[C@]2(C(=O)OCc3cn(-c4ccc(F)cc4)nn3)CC[C@]3(C)[C@H](CC[C@@H]4[C@@]5(C)CC[C@H](O)C(C)(C)[C@@H]5CC[C@]43C)[C@@H]12 | pIC50 | = | 5.15
C=C(C)[C@@H]1CC[C@]2(C(=O)OCc3cn(-c4ccc(Br)cc4)nn3)CC[C@]3(C)[C@H](CC[C@@H]4[C@@]5(C)CC[C@H](O)C(C)(C)[C@@H]5CC[C@]43C)[C@@H]12 | pIC50 | = | 4.60
C=C(C)[C@@H]1CC[C@]2(C(=O)OCc3cn(-c4ccccc4I)nn3)CC[C@]3(C)[C@H](CC[C@@H]4[C@@]5(C)CC[C@H](O)C(C)(C)[C@@H]5CC[C@]43C)[C@@H]12 | pIC50 | < | 4.00
C=C(C)[C@@H]1CC[C@]2(C(=O)OCc3cn(-c4ccc(OC)cc4)nn3)CC[C@]3(C)[C@H](CC[C@@H]4[C@@]5(C)CC[C@H](O)C(C)(C)[C@@H]5CC[C@]43C)[C@@H]12 | pIC50 | < | 4.00
